Below: a set of entries, each annotated with reported kon.
- experimental_system: T1, hu-sCD47-6His; extracellular domain of human CD47 antigen with 6His-tag (human)
- T1 construct: also called hCD47-his; soluble hCD47
- measurement_protocol: SPR Biacore T200, antibody captured, hCD47-his analyte;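 also: antibodies captured on anti-IgG (Fc) CM5 chip, five sequential 10 min antigen injections at rising concentrations, reference flow cell and antigen-free cycle as controls, 1:1 model fit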

Candidate 14 (VT008-AL6-14G1-16K1), mouse IgG (antibody, V domains shown, Recombinant mouse IgG2a or mIgG1 format, by assay) VH: QVQLQQPGAELVKPGASLRVSCKASGYTFTNYWMYWVRQRPGRGLEWIGWIDPNSGGTKYNEKFKSKATLTVDKPSSTAYMQLSSLTSEDSAVYNCARGGYTMDYWGQGTSVTVSS VL: DVVMTQTPLSLPVSLGDQASISCRASQSLVHSNGNTYLHWYLQKPGQSPKLLIYKVSNRFSGVPDRFSGSGSGTDFTLKISRVEAEDLGVYFCSQSTHVPLTFGAGTKLELK    874000 M⁻¹ s⁻¹

Now look at this entry.
Report kon for 2A1 (mouse antibody from Inhibrx) (antibody, V domains shown) VH: EVQLQQSGAELVRSGASVKLSCTASGFNIKDYYLHWVKQRPEQGLEWIGWIDPDNGDTEFAPKFQGKATMTADTSSNTAYLQLSSLTSEDTAVYYCNAAYGSSSYPMDYWGQGTSVTV VL: DIKMTQSPSSLYASLGERVTITCKASQDIHRYLSWFQQKPGKSPKILIYRANRLVDGVPSRFSGSGSGQDYSLTISSLEYEDMGIYYCLQYDEFPYTFGGGTKLEMK please. 401000 M⁻¹ s⁻¹
